pKd: recorded values
- target-of-assay: T1, human serum albumin (human, UniProt P02768 25-609)
- T1 construct: also called HSA
- assay-remarks: SPR, single cycle kinetics, pH 5.5
On this scale, pKd is minus log10 of a concentration expressed in M (mol/L).

// below: answered binders
{"columns": ["binder", "pKd"],
 "data": [
  ["H18 sdAb (VHH, also called H18 VHH) VHH: QVQLVESGGGLVQAGGSLRLSCTASGSIESINRMAWYRQAPGQQREFVARISKGGSTNYPDSVKGRFTISRDNAKNTVYLQMNSLKPEDTAVYYCAAGPVWEQFWGQGTQVTVSS", 7.34],
  ["H18-H3 (VHH) VHH: QVQLVESGGGLVQPGGSLRLSCAASGSIESINRMAWYRQAPGKQREFVARISKGGSTNYPDSVKGRFTISRDNSKNTLYLQMNSLRAEDTAVYYCAAGPVWEQFWGQGTLVTVSS", 7.65],
  ["Rh34-H5 (VHH) VHH: QVQLVESGGGLVQPGGSLRLSCAASGRTISLYAVGWFRRAPGKEREFVAAISWTDSSTYYADSVKGRFTISRDNAKNTVYLQMNSLRAEDTAVYYCAADVSIRGLQKYEYDYWGQGTLVTVS", 6.28]
]}

Next binder, please.
The measured pKd associated with Rh46-H1 (VHH) VHH: EVQLVESGGGLVQPGGSLRLSCAASTRTFSSYIMGWFRQAPGKGLELVSAISWSGRMTHYADSVKGRFTISRDNSKNTLYLQMNSLRAEDTAVYYCAADRTTAWGAPRSQYDSWGQGTLVTVSS reads 7.01
